# system-tested: Mitogen-activated protein kinase 11 (Homo sapiens, UniProt Q15759)
# Sequence (Q15759 whole entry): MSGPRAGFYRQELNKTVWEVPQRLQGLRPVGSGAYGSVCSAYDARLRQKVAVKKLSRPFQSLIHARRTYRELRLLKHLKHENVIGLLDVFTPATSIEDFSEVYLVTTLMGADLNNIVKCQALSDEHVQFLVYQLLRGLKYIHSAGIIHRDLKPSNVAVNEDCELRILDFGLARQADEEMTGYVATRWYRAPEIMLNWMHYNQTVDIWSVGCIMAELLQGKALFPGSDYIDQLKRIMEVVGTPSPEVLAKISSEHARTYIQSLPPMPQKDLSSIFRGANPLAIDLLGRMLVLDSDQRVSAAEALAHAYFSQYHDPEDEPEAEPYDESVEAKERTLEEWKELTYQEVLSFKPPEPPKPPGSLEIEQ
# assay-info: Affinity Phenotypic Cellular interaction (TNF-a release (stimmulated by LPS in human WB)) EUB0000711a MAPK11
# Type: functional
# Design: mode of action Negative control for SR318, recommended concentration 1 uM
pIC50: −log10 of the molar value.
measured-endpoint: pIC50

Please provide the recorded pIC50 for O=C(NCCCC1CCCCC1)c1ccc(CNC(=O)c2cnn(-c3ccccc3)c2C(F)(F)F)cc1 [SR-321] , tested on Mitogen-activated protein kinase 11 (Homo sapiens, UniProt Q15759).
< 5.00

###

# system-tested: Serine/threonine-protein kinase TBK1 (Homo sapiens)
# Sequence (Q9UHD2 whole entry): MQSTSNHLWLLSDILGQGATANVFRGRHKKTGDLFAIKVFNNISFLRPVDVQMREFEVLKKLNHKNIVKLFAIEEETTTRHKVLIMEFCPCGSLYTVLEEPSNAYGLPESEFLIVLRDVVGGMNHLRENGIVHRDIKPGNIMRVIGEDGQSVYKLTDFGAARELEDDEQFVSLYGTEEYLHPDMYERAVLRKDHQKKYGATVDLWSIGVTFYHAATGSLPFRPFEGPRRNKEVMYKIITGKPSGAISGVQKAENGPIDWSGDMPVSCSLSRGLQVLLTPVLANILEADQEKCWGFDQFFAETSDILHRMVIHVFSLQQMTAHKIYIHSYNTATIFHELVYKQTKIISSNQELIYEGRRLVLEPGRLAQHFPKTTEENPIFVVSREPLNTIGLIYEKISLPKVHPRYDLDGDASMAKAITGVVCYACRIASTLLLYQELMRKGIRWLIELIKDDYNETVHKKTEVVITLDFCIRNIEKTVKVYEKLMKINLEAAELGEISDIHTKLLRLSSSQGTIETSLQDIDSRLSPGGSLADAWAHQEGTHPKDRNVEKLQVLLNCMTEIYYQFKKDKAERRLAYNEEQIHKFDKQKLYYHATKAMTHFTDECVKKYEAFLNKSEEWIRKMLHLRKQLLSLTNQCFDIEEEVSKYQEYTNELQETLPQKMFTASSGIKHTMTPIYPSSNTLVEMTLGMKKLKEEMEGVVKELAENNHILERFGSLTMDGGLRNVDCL
measured-endpoint: pIC50
Note on pIC50: it is the negative log10 of concentration, concentration in mol/L.

# input molecule: C[C@H](c1ccnc(Nc2nc3ccc(-c4cc(N(C)C)ncn4)cc3[nH]2)c1)N1CCN(C(=O)CC(F)(F)F)CC1 [BAY-985] ; wanted: its pIC50
7.13

###

# system-tested: Calcium/calmodulin-dependent protein kinase kinase 2 (Homo sapiens, UniProt Q96RR4)
# Sequence (Q96RR4 whole entry): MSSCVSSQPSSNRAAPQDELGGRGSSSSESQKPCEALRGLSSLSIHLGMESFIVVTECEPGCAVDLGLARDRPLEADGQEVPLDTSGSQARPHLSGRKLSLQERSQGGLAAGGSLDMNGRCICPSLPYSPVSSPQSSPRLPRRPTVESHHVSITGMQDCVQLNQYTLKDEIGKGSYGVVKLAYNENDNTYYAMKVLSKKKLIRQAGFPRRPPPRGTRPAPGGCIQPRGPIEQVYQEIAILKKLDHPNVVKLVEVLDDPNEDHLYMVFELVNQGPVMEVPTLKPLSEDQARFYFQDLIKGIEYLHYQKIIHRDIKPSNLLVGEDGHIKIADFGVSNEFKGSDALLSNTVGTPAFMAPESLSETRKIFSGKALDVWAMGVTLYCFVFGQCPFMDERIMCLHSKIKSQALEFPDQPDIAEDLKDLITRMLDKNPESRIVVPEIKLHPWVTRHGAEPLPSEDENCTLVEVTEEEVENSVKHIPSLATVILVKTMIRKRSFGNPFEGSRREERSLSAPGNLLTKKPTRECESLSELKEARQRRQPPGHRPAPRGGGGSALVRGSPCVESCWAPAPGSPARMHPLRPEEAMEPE
# assay-info: Affinity Phenotypic Cellular interaction (Western Blot (downstream phosphorylation of AMPK in C4-2 cells)) EUB0000168b CAMKK2
# Assay type: cell-based
# Set-up: mode of action Negative control for SGC-CAMKK2-1 (UNC-YL-36), recommended concentration 1 uM
measured-endpoint: IC50

# input molecule: O=C(O)c1ccc(-c2coc3ncc(-c4ccccc4)cc23)cc1Cl ; wanted: its IC50
> 10 µM

###

# system-tested: Rho-associated protein kinase 1 (Homo sapiens, UniProt Q13464)
# Sequence (Q13464 whole entry): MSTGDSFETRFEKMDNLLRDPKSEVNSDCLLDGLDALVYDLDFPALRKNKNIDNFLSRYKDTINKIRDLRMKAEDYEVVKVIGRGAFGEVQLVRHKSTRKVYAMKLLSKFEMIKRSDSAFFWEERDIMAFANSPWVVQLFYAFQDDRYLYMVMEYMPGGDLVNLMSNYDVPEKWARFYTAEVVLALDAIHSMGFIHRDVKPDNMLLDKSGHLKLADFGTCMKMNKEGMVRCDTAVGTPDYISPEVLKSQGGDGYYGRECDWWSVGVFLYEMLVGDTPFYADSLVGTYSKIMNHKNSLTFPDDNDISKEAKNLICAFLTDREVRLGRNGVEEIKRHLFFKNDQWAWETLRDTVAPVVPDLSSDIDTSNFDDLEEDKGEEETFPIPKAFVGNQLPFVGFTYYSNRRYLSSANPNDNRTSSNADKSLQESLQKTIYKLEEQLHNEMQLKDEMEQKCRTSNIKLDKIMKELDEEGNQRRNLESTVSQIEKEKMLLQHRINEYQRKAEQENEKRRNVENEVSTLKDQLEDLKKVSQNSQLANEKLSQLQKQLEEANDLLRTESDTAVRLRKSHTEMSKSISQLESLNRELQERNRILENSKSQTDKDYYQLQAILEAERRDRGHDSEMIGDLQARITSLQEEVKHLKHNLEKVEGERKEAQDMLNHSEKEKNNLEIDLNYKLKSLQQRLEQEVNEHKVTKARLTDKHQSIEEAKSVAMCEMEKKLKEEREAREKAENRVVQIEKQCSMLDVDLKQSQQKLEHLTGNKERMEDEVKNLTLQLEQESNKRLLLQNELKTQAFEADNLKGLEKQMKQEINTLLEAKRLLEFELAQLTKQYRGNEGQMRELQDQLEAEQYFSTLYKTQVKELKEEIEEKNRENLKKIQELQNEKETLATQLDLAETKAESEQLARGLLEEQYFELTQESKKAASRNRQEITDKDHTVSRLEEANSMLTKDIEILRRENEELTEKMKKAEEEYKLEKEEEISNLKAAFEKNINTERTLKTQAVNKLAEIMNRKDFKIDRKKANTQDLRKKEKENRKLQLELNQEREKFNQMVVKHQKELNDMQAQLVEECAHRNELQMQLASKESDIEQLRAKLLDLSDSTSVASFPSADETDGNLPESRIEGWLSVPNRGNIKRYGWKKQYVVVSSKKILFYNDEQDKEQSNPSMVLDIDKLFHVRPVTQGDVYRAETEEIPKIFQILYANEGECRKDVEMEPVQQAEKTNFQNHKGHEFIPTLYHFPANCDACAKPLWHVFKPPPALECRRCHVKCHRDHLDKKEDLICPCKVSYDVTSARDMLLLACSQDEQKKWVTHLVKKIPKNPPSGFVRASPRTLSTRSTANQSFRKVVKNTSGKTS
# assay-info: Affinity Phenotypic Cellular interaction (Western Blot (phosphorylation of MYPT at Thr850 in HEK293 cells)) EUB0000134b ROCK1
pIC50: −log10 of the molar value.
measured-endpoint: pIC50

# input molecule: CC1=C(C(=O)Nc2cc3cn[nH]c3cc2F)C(c2ccc(C(F)(F)F)cc2)CC(=O)N1 (stereo unspecified) ; wanted: its pIC50
> 5.00
